Provenance of the data: the supplement of paper PMC10567573

Listing: protein stability index of selected variants
B1: GLTSCR2 (parent)
chain: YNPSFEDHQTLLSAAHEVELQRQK

- Variants of: B1
- PROCEDURE_DETAILS: protein stability index of a GFP-peptide fusion (GPS, HEK-293T) (PSI 1-6); higher = more stable;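 note: lentivirally expressed fusions sorted by FACS into six bins by GFP to DsRed ratio, PSI derived from sequencing read proportions per bin multiplied by bin number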
- DETAILS: c terminus: a fixed tail appended
Enter the number alone.

change=S4D metric="protein stability index" value_measured=4.72
change=V18F metric="protein stability index" value_measured=3.1
change=V18C metric="protein stability index" value_measured=3.65
change=E17M metric="protein stability index" value_measured=3.29
change=D7M metric="protein stability index" value_measured=3.23

Input line: Quick check: protein stability index of L11D ?
Output line: 5.01

Input line: Quick check: protein stability index of F5K ?
Output line: 2.48

Input line: Quick check: protein stability index of E19N ?
Output line: 3.36

Input line: Quick check: protein stability index of L12K ?
Output line: 4.45

Input line: Quick check: protein stability index of R22N ?
Output line: 4.32

Input line: Quick check: protein stability index of S13V ?
Output line: 3.2

Input line: Quick check: protein stability index of Q23H ?
Output line: 3.33

Input line: Quick check: protein stability index of F5E ?
Output line: 4.9
